tested on: E. aerogenes; assay: Susceptibility testing (MIC, modified NCCLS method); assay type: cell-based, Enterobacter aerogenes; details: Klebsiella aerogenes, ATCC35028; E. aerogenes ATCC 35028; read-out: MIC
property: MIC (µg/mL)
Report the figure in µg/mL without appending any unit label.

# count of solved cases: 3
1) NC(C(=O)NC1C(=O)N2C(C(=O)O)=C(COc3cc(Cl)ccc3Oc3ccc(Cl)cc3Cl)CS[C@H]12)c1ccc(O)cc1 (some centres unmarked) | 4
2) O=C(Cc1cccs1)NC1C(=O)N2C(C(=O)O)C(COC(=O)Oc3cc(Cl)ccc3Oc3ccc(Cl)cc3Cl)=CS[C@H]12 (some centres unmarked) | 0.98
3) O=C(COc1ccc(O)cc1)NC1C(=O)N2C(C(=O)O)=C(COc3cc(Cl)ccc3Oc3ccc(Cl)cc3Cl)CS[C@H]12 (some centres unmarked) | 32

Next:
Input line: Specify reported MIC for the molecule shown: O=C(Cn1cnnn1)NC1C(=O)N2C(C(=O)O)=C(COc3cc(Cl)ccc3Oc3ccc(Cl)cc3Cl)CS[C@H]12 (some centres unmarked)
Output line: 32

* * *

tested on: E. faecalis; experiment: Susceptibility testing (MIC, modified NCCLS method); type: cell-based, Enterococcus faecalis; conditions: E. faecalis ATCC 49757
Listed here are molecules together with their documented MIC.
Give a bare numeral; the unit mg/L is implied.

1) CON=C(C(=O)NC1C(=O)N2C(C(=O)O)=C(COc3cc(Cl)ccc3Oc3ccc(Cl)cc3Cl)CSC12)c1csc(N)n1 (centres unmarked) | 32

Input line: Report the value of MIC obtained on E. faecalis for NC(C(=O)NC1C(=O)N2C(C(=O)O)=C(COc3cc(Cl)ccc3Oc3ccc(Cl)cc3Cl)CSC12)c1ccccc1 (centres unmarked) .
Output line: 15.9

Input line: Tell me its MIC on E. faecalis: O=C(Cc1cnc[nH]1)NC1C(=O)N2C(C(=O)O)=C(COc3cc(Cl)ccc3Oc3ccc(Cl)cc3Cl)CS[C@H]12 (some centres unmarked)
Output line: 32

Input line: Write down the reported MIC (system: E. faecalis) of O=C(Cn1cnnn1)Nc1ncc(CC(=O)NC2C(=O)N3C(C(=O)O)=C(COc4cc(Cl)ccc4Oc4ccc(Cl)cc4Cl)CS[C@H]23)s1 (some centres unmarked)
Output line: 32

Input line: GET MIC | system: E. faecalis | item: CC(=O)NC1C(=O)N2C(C(=O)O)=C(COc3cc(Cl)ccc3Oc3ccc(Cl)cc3Cl)CSC12 (centres unmarked)
Output line: 16

Input line: Enter recorded MIC with E. faecalis for O=C(Cc1cccs1)NC1C(=O)N2C(C(=O)O)=C(CC=COc3cc(Cl)ccc3Oc3ccc(Cl)cc3Cl)CSC12 (centres unmarked) here.
Output line: 4.14

Input line: Quote MIC with test system E. faecalis for O=C(Cc1cccs1)NC1C(=O)N2C(C(=O)O)=C(C=CCOc3ccc(Cl)cc3C(=O)Nc3ccc(Cl)c(Cl)c3)CS[C@H]12 (some centres unmarked)
Output line: 8

* * *

tested on: E. aerogenes; assay: Susceptibility testing (MIC, modified NCCLS method); assay type: cell-based, Enterobacter aerogenes; conditions: E. aerogenes ATCC 35028
Each entry below carries its recorded MIC.
Give the value in µg/mL but do not write µg/mL after it.

1) O=C(Cc1cccs1)NC1C(=O)N2C(C(=O)O)=C(CC=COc3cc(Cl)ccc3Oc3ccc(Cl)cc3Cl)CSC12 (stereo not shown) [Compound 24] | 4.14

Attention now turns to another entry.
Input line: // Input: O=C(Cc1cnc[nH]1)NC1C(=O)N2C(C(=O)O)=C(COc3cc(Cl)ccc3Oc3ccc(Cl)cc3Cl)CS[C@H]12 (stereo partly shown) [Compound 31] . Output its MIC only.
Output line: 16
